For each record, write down the corresponding protein stability index.
B1: ADAMTS4 (parent)
chain: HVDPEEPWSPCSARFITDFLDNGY

variants of: B1; test: protein stability index of a GFP-peptide fusion (GPS, HEK-293T) (PSI 1-6); higher = more stable; details: c terminus: a fixed tail appended;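 also: lentivirally expressed fusions sorted by FACS into six bins by GFP to DsRed ratio, PSI derived from sequencing read proportions per bin multiplied by bin number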
One number for each entry.

// solved cases for protein stability index follow
Problem: Look at this variant and give its reported protein stability index. W8Q
Result: 3.37

Problem: Look at this variant and give its reported protein stability index. R14F
Result: 2.27

Problem: protein stability index for S12I ?
Result: 2.16

Hi, could you look up protein stability index for each item in my list?
1. P10D
2. D21E
3. E6T
4. P7N

Result:
1: 2.22; 2: 1.71; 3: 1.77; 4: 1.74
